Provide the reported ELISA Absorbance (405 nm-570 nm) of each item.
Target: T1, SELL (L-Selectin)
T1 construct: coated protein in the ELISA; also called SELL-Fc-His (R&D Systems)
T1 chain: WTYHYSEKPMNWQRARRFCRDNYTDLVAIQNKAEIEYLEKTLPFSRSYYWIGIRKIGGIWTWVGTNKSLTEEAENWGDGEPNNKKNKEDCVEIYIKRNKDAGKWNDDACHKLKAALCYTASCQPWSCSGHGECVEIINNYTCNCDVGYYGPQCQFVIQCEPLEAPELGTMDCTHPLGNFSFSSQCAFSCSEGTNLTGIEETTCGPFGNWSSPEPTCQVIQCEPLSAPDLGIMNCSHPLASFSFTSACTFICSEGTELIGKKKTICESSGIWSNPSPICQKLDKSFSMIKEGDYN
Test: ELISA on coated SELL-Fc-His, 150 ng IgG1; None 0.096
Please state the value as a number alone, without comment.

Per the record, HW-42 chimeric rabbit-human IgG1 LA/LA/PG (antibody, V domains shown, Fc-silenced (L234A/L235A/P329G) IgG1, lambda; Alexa Fluor 647-labeled in single-step flow cytometry; Cluster C-1) VH: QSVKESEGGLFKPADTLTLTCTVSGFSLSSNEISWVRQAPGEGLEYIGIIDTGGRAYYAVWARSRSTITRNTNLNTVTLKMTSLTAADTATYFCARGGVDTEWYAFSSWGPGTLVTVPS VL: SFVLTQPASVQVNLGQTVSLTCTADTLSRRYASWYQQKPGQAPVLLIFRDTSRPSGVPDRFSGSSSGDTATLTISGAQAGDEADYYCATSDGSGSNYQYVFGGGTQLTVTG has ELISA Absorbance (405 nm-570 nm) of 0.103

What the record says about HW-81 chimeric rabbit-human IgG1 LA/LA/PG (antibody, V domains shown, Fc-silenced (L234A/L235A/P329G) IgG1, lambda; Alexa Fluor 647-labeled in single-step flow cytometry; Cluster C-45) VH: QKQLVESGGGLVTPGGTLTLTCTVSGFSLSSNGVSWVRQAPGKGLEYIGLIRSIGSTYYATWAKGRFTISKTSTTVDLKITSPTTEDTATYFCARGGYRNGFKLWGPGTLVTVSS VL: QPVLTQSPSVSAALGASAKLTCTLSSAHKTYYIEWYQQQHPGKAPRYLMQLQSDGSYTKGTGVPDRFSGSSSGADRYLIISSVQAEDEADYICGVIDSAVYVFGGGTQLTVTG : ELISA Absorbance (405 nm-570 nm) is 0.083

Lab note: measured ELISA Absorbance (405 nm-570 nm) of HW-8 chimeric rabbit-human IgG1 LA/LA/PG (antibody, V domains shown, Fc-silenced (L234A/L235A/P329G) IgG1, kappa; Alexa Fluor 647-labeled in single-step flow cytometry; Cluster C-45) VH: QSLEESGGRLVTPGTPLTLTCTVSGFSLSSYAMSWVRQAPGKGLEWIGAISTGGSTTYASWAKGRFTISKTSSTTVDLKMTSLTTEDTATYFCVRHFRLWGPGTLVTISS VL: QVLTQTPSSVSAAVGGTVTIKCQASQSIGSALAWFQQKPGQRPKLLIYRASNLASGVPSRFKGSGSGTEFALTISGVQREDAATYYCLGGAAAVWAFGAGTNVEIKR was 0.074

Every entry's value here was drawn from patent US20260049134A1.
